tested on: Epidermal growth factor receptor (Homo sapiens), P00533 [T790M]; settings: at 0.1 µM
Sequence (P00533 whole entry T790M): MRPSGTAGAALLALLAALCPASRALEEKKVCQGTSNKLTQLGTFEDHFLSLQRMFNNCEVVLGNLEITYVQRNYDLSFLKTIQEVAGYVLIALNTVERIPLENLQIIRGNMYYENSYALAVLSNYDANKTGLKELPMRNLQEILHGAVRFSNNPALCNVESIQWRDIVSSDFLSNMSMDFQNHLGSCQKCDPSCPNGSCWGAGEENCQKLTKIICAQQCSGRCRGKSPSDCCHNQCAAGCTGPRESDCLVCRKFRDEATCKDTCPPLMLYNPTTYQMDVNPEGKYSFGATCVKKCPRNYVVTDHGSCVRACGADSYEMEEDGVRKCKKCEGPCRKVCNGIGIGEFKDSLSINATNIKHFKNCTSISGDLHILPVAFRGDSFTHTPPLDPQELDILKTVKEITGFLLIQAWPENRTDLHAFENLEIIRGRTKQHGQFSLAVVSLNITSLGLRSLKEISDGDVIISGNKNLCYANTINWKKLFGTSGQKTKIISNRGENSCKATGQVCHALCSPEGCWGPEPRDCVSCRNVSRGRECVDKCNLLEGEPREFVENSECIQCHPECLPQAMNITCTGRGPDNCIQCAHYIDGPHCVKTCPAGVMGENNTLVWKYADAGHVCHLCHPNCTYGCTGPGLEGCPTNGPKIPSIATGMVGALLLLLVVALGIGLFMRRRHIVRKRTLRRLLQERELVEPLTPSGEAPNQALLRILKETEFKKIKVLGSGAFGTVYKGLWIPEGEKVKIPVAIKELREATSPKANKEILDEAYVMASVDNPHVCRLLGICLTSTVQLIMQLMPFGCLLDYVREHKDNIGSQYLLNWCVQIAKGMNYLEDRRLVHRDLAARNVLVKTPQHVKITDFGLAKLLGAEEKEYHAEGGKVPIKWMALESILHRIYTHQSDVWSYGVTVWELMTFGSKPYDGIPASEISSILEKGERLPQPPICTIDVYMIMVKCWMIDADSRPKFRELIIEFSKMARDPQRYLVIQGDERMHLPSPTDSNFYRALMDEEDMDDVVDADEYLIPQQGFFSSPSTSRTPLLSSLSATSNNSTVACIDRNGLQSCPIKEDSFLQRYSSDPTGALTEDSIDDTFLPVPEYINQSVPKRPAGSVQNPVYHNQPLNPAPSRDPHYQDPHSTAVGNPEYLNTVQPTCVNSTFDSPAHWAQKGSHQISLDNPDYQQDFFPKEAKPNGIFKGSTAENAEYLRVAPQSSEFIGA
reported.endpoint: inhibition (%)
Numbers only, in %.

Worked examples follow.
| smi | result.units | inhibition |
| --- | --- | --- |
| NCc1ccc(-n2c(-c3nonc3N)nc3cnccc32)cc1 | % | 3.36 |
| COc1cc(Nc2ncc(-c3ccccc3)o2)cc(OC)c1OC | % | 0.05 |
| c1ccc(-c2n[nH]cc2-c2ccnc(-c3ccc(OCCN4CCOCC4)cc3)c2)nc1 | % | -0.02 |
| CS(=O)(=O)CCNCc1cc(-c2cc3c(Nc4ccc(OCc5cccc(F)c5)c(Cl)c4)ncnc3s2)cs1 | % | 0.98 |
| NC(=O)c1cc(-c2ccncc2)cc(-c2ccccc2)c1N | % | 1.64 |
| COc1cc(C)c(N(C)C(=O)CN(C)C)cc1Nc1nc(Nc2cccc(F)c2C(N)=O)c2cc[nH]c2n1 | % | 0.93 |
| CN(C)c1ccc2c(c1)/C(=C/Nc1ccc(S(N)(=O)=O)cc1)C(=O)N2 | % | 0.31 |
| CCc1nccc2c1nc(-c1nonc1N)n2CC | % | -1.16 |

// each molecule listed below needs its inhibition
1. NC(=O)Cc1ccccc1Oc1nccc(-c2c(-c3ccc(F)cc3)ncn2C2CCNCC2)n1
2. O=C1NC(=O)C(c2cccc(Cl)c2)=C1Nc1ccc(Cl)c(C(=O)O)c1

Reply:
0.99
1

###

target: SRSF protein kinase 3 (Homo sapiens) (UniProt Q9UPE1); conditions: at 0.1 µM;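 note: mean of replicate inhibition values against MSSK1 kinase, profiled within the GSK PKIS kinase inhibitor set screen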
Sequence (Q9UPE1 whole entry): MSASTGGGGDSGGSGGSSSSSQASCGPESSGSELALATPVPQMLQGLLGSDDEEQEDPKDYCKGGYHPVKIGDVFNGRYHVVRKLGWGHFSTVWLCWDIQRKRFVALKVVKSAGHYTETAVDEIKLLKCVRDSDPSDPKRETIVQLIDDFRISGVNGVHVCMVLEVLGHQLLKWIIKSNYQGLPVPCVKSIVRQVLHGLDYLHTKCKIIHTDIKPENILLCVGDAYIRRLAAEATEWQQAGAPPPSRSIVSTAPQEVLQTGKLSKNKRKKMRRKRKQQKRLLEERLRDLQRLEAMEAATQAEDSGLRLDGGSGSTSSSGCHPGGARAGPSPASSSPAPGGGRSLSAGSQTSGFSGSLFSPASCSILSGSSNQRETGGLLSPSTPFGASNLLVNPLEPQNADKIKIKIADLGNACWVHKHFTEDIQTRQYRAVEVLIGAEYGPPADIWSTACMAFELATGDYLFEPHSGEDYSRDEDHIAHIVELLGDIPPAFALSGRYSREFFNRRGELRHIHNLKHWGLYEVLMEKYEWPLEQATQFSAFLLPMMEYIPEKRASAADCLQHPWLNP
Would you kindly list inhibition for each of these compounds?
Numbers only, in %.

As a guide, the following entries are already answered.
| smi | system.name | inhibition / % |
| --- | --- | --- |
| Fc1ccc(-c2ncn(C3CCNCC3)c2-c2ccnc(Oc3ccc4c(c3)OCO4)n2)cc1 | SRSF protein kinase 3 (Homo sapiens) (UniProt Q9UPE1) | 1.72 |
| NCc1ccc(-n2c(-c3nonc3N)nc3cnccc32)cc1 | SRSF protein kinase 3 (Homo sapiens) (UniProt Q9UPE1) | -0.85 |

For every listed record, write down its inhibition.
1. COc1cccc(/C=N/Nc2ncnc3c2cnn3-c2cccc(OC)c2)c1
2. O=C(Nc1ccc(Oc2ccc3[nH]c(NC(=O)c4ccccc4)nc3c2)cc1)Nc1cc(C(F)(F)F)ccc1F
3. COc1cccc(-n2cnc3c(N/N=C/c4ccncc4)ncnc32)c1

Reply:
1. -1.31
2. 4.8
3. -0.93

###

Consider the following molecules; for each one, report its inhibition.
molecular target: RAC-gamma serine/threonine-protein kinase (Homo sapiens) (UniProt Q9Y243); details: at 1 µM
Sequence (Q9Y243 whole entry): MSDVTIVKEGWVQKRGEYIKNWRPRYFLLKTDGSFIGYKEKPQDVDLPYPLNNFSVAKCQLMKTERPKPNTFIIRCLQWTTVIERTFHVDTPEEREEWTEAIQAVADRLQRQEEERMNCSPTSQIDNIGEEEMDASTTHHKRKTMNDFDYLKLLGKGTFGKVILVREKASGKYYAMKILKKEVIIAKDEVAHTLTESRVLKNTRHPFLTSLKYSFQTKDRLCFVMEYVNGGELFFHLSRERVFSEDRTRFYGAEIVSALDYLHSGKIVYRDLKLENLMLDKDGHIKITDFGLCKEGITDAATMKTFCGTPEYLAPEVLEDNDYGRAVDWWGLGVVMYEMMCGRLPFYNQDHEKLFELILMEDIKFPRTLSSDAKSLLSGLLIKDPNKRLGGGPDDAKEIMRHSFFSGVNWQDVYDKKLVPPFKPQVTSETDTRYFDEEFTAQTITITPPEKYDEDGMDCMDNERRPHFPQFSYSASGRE
Description: GSK_PKIS: AKT3 mean inhibition at 1 uM [Nanosyn]
The number alone won't do; follow it with the unit.

Consider the worked cases shown below.
| smi | system.name | inhibition |
| --- | --- | --- |
| COc1cc2ncn(-c3cc(OCc4ccccc4C(F)(F)F)c(C(C)=O)s3)c2cc1OC | RAC-gamma serine/threonine-protein kinase (Homo sapiens) (UniProt Q9Y243) | 1.31% |
| O=C(Nc1ccc(Oc2ccc3[nH]c(NC(=O)c4ccccc4)nc3c2)cc1)Nc1cc(C(F)(F)F)ccc1F | RAC-gamma serine/threonine-protein kinase (Homo sapiens) (UniProt Q9Y243) | 1.51% |
| COc1cc2ncn(-c3cc(OCCc4ccccc4)c(C(N)=O)s3)c2cc1OC | RAC-gamma serine/threonine-protein kinase (Homo sapiens) (UniProt Q9Y243) | -0.88% |
| COc1cc(Nc2ncc(-c3ccccc3)o2)cc(OC)c1OC | RAC-gamma serine/threonine-protein kinase (Homo sapiens) (UniProt Q9Y243) | 1.14% |
| O=C(Nc1n[nH]c2cc(-c3cc(F)ccc3F)ccc12)C1CC1 | RAC-gamma serine/threonine-protein kinase (Homo sapiens) (UniProt Q9Y243) | 2.68% |

Provide the reported inhibition of each entry below, same order.
1. COc1cc(Nc2ncc3c(C)nc(-c4cccc(Oc5ccccc5)c4)n3n2)cc(OC)c1OC
2. CCC(=O)Nc1ccc(C)c(-c2ccc(C(=O)NCC3CC3)cc2)c1
3. O=C1Nc2ccccc2/C1=C/Nc1ccc(-n2cncn2)cc1

Reply:
1. 1.43%
2. 2.4%
3. 2.21%

Hello, I would appreciate it if you could give inhibition for each entry below.
1. CCc1ccc(Oc2nccc(-c3c(-c4ccc(F)cc4)ncn3C3CCNCC3)n2)cc1
2. C#Cc1cccc(Nc2ncnc3ccc(OCCCCNCCS(C)(=O)=O)cc23)c1

Reply:
["11.5%", "-0.78%"]

###

target: Testis-specific serine/threonine-protein kinase 1 (Homo sapiens); settings: at 1 µM;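 note: reported value is the mean inhibition, from the GSK PKIS kinase screening panel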
Exercise: for every item that follows, state its recorded inhibition.

// worked examples, inhibition included
| smi | reported.value |
| --- | --- |
| Cc1ccc(C(=O)NC2CCC2)cc1-c1ccc(C(=O)NCC2CC2)cc1 | 1.32% |
| CNC(=O)c1cncc(/C=C/c2c(C)cccc2C)c1 | -1.47% |

Please report inhibition for every entry that follows.
1. O=C(Nc1n[nH]c2cc(-c3ccccc3)ccc12)C1CC1
2. N#Cc1ccc(Oc2nccc(-c3c(-c4ccc(F)cc4)ncn3C3CCNCC3)n2)cc1
3. CN1CCN(CCCNc2nc3ccc(Oc4ccc(NC(=O)Nc5cc(C(F)(F)F)ccc5F)cc4)cc3[nH]2)CC1

Reply:
["2.02%", "4.18%", "-0.16%"]

###

Task for the reader: assign each of the following molecules its reported inhibition.
target: Mitogen-activated protein kinase 9 (Homo sapiens) (UniProt P45984); conditions: at 0.1 µM;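 note: values are mean inhibition of JNK2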
Sequence (P45984 whole entry, looked up): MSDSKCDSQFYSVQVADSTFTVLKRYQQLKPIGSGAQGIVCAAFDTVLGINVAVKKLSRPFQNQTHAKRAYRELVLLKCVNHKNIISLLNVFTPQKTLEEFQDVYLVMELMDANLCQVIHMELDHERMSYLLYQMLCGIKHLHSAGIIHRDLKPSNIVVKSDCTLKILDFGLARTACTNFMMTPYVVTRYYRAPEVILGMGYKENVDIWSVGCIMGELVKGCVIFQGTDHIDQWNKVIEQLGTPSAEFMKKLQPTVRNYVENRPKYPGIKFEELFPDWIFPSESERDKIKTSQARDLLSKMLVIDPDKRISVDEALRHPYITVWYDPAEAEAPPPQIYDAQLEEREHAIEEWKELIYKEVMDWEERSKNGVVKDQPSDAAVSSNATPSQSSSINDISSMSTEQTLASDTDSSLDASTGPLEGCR
One number for each entry, in %.

| smi | inhibition / % |
| --- | --- |
| O=C(NCC1CC1)c1ccc(-c2cccc(C(=O)NC3CC3)c2)cc1 | 3.38 |

// input: 4 molecules below; output: inhibition for each
1. CN1CCN(CCCNc2nc3ccc(Oc4ccc(NC(=O)Nc5cc(C(F)(F)F)ccc5F)cc4)cc3[nH]2)CC1
2. c1ccc(Oc2ccc(Nc3ncc(-c4ccccc4)o3)cc2)cc1
3. C[C@@H](Oc1cc(-n2cnc3ccc(OCC4CCN(C)CC4)cc32)sc1C(N)=O)c1ccccc1Cl
4. O=C(Nc1n[nH]c2nc(-c3ccc(O)cc3)c(Br)cc12)C1CC1

Reply:
1: 3.11; 2: 0.54; 3: 7.22; 4: 12.2

###

target: Inhibitor of nuclear factor kappa-B kinase subunit epsilon (Homo sapiens); conditions: at 0.1 µM;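 note: mean inhibition of IKKε reported, from the GSK PKIS dataset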
reported.endpoint: inhibition (%)
One number for each entry, in %.

| compound | inhibition, % |
| --- | --- |
| c1ccc(-c2n[nH]cc2-c2ccnc(-c3ccc(OCCN4CCOCC4)cc3)c2)nc1 | -5.44 |

For every item below, please supply its inhibition.
1. NS(=O)(=O)c1ccc(N/N=C2\C(=O)Nc3ccc(C(=O)NCCCn4ccnc4)cc32)cc1
2. COc1cc(N2CCN(C(C)C)CC2)ccc1Nc1nc(Nc2ccc(F)cc2C(=O)NC[C@@H](O)CO)c2cc[nH]c2n1
3. Fc1ccc(-c2c(-c3ccncc3)nc3n2CCS3)cc1
4. Cc1ccc(NC(=O)c2ccoc2)cc1-c1ccc(C(=O)NCC2CC2)cc1

Reply:
[10.8, 8.4, 4.09, 3.64]

Field: inhibition. Fill in for each record below.
1. O=C1Nc2ccccc2/C1=C/Nc1ccc(-n2cncn2)cc1
2. O=C1Nc2ccc(I)cc2C1=Cc1cc(Br)c(O)c(Br)c1
3. Fc1ccc(-c2ncn(CCCN3CCOCC3)c2-c2ccncc2)cc1
4. COc1cc(Nc2ncc3c(C)nc(-c4cccc(C(F)(F)F)c4)n3n2)cc(OC)c1OC
5. COc1cc(Nc2ncc(-c3ccccc3)o2)cc(OC)c1OC
6. CN(C)CCOc1ccc(-c2cc(-c3ccc4c(c3)CCC4=NO)c(-c3ccncc3)o2)cc1
7. NS(=O)(=O)c1ccc(N/N=C2\C(=O)Nc3ccc(-c4cnco4)cc32)cc1

Reply:
1: 7.57; 2: 10.2; 3: 4.58; 4: 10.6; 5: 0.76; 6: -1.86; 7: 5.68

Answer for every listed entry: what is its inhibition? The entries follow.
1. CCS(=O)(=O)c1ccc(OC)c(Nc2ncc(-c3ccccc3Cl)o2)c1
2. NCc1ccc(-n2c(-c3nonc3N)nc3cnccc32)cc1
3. COC(=O)Nc1nc2ccc(Sc3ccc(NC(=O)Nc4cc(C(F)(F)F)ccc4F)cc3)cc2[nH]1
4. COc1cccc(-n2cnc3c(N/N=C/c4ccncc4)ncnc32)c1
5. COc1cc(Nc2ncc3c(C)nc(-c4cccc(Oc5ccccc5)c4)n3n2)cc(OC)c1OC
6. Fc1ccc(-c2nc3n(c2-c2ccncc2)CCS3)cc1
7. FC(F)(F)c1cccc(Nc2nccc(-c3cnn4nc(-c5ccccc5)ccc34)n2)c1
8. Nc1nccc(-c2c(-c3ccc(F)cc3)ncn2C2CCC(O)CC2)n1 (stereo unspecified)

Reply:
1. 3.21
2. 5.51
3. -0.58
4. 3.81
5. 2.97
6. 5.03
7. 3.76
8. -3.9

Query: Return inhibition measured with Inhibitor of nuclear factor kappa-B kinase subunit epsilon (Homo sapiens) given this compound: C[C@@H](Oc1cc(-n2cnc3ccc(OCC4CCN(C)CC4)cc32)sc1C(N)=O)c1ccccc1Cl
Reply: 2.73
